Data provenance is ChEMBL document CHEMBL3045994.

We begin with a simple list: items and their reported Activity.
# Tested on: Mus musculus
# Assay Name: Anticonvulsant activity in Mus musculus albino CF1 (mouse) assessed as protection against 6 Hz psychomotor seizure at 100 mg/kg, ip after 2 hr
# Assay type: functional
# Assay Conditions: route intraperitoneal

Smiles String | Activity / %
O=C(CSc1nc2ccccc2s1)N/N=C/c1ccc(Oc2ccc(F)cc2)cc1 | 0
Cc1ccc(Oc2ccc(/C=N/Nc3nc4ccccc4s3)cc2)cc1 | 0
O=C(CSc1nc2ccccc2s1)N/N=C/c1ccc(Oc2ccc([N+](=O)[O-])cc2)cc1 | 0
O=C1Nc2ccccc2/C1=N/Nc1nc2ccccc2s1 | 25
C(=N\Nc1nc2ccccc2s1)/c1ccc(Oc2ccccc2)cc1 | 50
O=C(CSc1nc2ccccc2s1)N/N=C/c1ccc(Oc2ccccc2)cc1 | 0
C(=N\Nc1nc2ccccc2s1)/c1ccc(Oc2ccc3c(c2)OCO3)cc1 | 0
Cc1cc(Oc2ccc(/C=N/NC(=O)CSc3nc4ccccc4s3)cc2)ccc1Cl | 0
Cc1cc(Oc2ccc(/C=N/Nc3nc4ccccc4s3)cc2)ccc1Cl | 0
Brc1ccc(Oc2ccc(/C=N/Nc3nc4ccccc4s3)cc2)cc1 | 50
O=[N+]([O-])c1ccc(Oc2ccc(/C=N/Nc3nc4ccccc4s3)cc2)cc1 | 0
C(=N\Nc1nc2ccccc2s1)/c1ccc(Oc2ccc3ccccc3c2)cc1 | 50
O=C(CSc1nc2ccccc2s1)N/N=C/c1ccc(Oc2ccc(Br)cc2)cc1 | 0
O=C(CSc1nc2ccccc2s1)N/N=C/c1ccc(Oc2ccc3ccccc3c2)cc1 | 0
Clc1ccc(Oc2ccc(/C=N/Nc3nc4ccccc4s3)cc2)cc1 | 25
O=C(CSc1nc2ccccc2s1)N/N=C/c1ccc(Oc2ccc(Cl)cc2)cc1 | 25
O=C(CSc1nc2ccccc2s1)N/N=C1\C(=O)Nc2ccccc21 | 0
